Target: Adenosine receptor A3 (Homo sapiens)
Sequence (P0DMS8 whole entry): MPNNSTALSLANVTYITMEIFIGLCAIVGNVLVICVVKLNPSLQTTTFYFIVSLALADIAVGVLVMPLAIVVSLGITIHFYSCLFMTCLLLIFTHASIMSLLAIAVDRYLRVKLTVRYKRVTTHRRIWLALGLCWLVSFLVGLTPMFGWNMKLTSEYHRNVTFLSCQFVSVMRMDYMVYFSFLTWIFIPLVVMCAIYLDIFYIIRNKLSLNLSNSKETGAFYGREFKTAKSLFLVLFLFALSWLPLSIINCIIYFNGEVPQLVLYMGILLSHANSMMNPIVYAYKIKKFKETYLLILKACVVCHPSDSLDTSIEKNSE
Test: Displacement of [3H]NECA from human adenosine A3 receptor expressed in CHO cell membrane
Format: cell membranes
pKi: −log10 of the molar value.
Catalogue of molecules with associated pKi

[
  {
    "molecule": "CCN(CCO)c1nc2nn(C)cc2c2nc(-c3ccco3)nn12",
    "pKi": 5.87
  },
  {
    "molecule": "CCCCC(CC)CNc1nc2nn(C)cc2c2nc(-c3ccco3)nn12 (stereo unspecified)",
    "pKi": 8.42
  },
  {
    "molecule": "CCCCCN(CCCCC)c1nc2nn(C)cc2c2nc(-c3ccco3)nn12",
    "pKi": 6.08
  },
  {
    "molecule": "Cn1cc2c(nc(NCCc3c[nH]c4ccccc34)n3nc(-c4ccco4)nc23)n1",
    "pKi": 7.51
  },
  {
    "molecule": "COc1ccc(CNc2nc3nn(C)cc3c3nc(-c4ccco4)nn23)cc1",
    "pKi": 8.16
  },
  {
    "molecule": "CC[C@H](C)Nc1nc2nn(C)cc2c2nc(-c3ccco3)nn12",
    "pKi": 7.96
  }
]

* * *

Target: Adenosine receptors; A1 & A3 (Homo sapiens) (UniProt P30542+P0DMS8)
Assay: Selectivity ratio of Ki for human adenosine A1 receptor expressed in CHO cell membrane to Ki for human adenosine A3 receptor expressed in CHO cell membrane
Format: cell-based
Ratio Ki values, listed per item

[
  {
    "compound": "Cn1cc2c(nc(Cl)n3nc(-c4ccco4)nc23)n1",
    "Ratio Ki": 17.9
  },
  {
    "compound": "Cn1cc2c(nc(NC3C4CC5CC(C4)CC3C5)n3nc(-c4ccco4)nc23)n1 (stereo unspecified)",
    "Ratio Ki": 39.9
  },
  {
    "compound": "CN(C)c1nc2nn(C)cc2c2nc(-c3ccco3)nn12",
    "Ratio Ki": 12.1
  },
  {
    "compound": "Cn1cc2c(nc(N3CCOCC3)n3nc(-c4ccco4)nc23)n1",
    "Ratio Ki": 4.71
  },
  {
    "compound": "CCNc1nc2nn(C)cc2c2nc(-c3ccco3)nn12",
    "Ratio Ki": 13.6
  },
  {
    "compound": "Cn1cc2c(nc(NCCc3c[nH]c4ccccc34)n3nc(-c4ccco4)nc23)n1",
    "Ratio Ki": 40.4
  }
]

* * *

Biological target: Adenosine receptors; A1 & A3 (Homo sapiens) (UniProt P30542+P0DMS8)
Test: Selectivity ratio of Ki for human adenosine A1 receptor expressed in CHO cell membrane to Ki for human adenosine A3 receptor expressed in CHO cell membrane
Assay type: cell-based
Ratio Ki: recorded values
metric: Ratio Ki

[
  {
    "item smiles": "Cn1cc2c(nc(NCc3ccccc3)n3nc(-c4ccco4)nc23)n1",
    "readout value": 212
  },
  {
    "item smiles": "Cn1cc2c(nc(NCCCCCCO)n3nc(-c4ccco4)nc23)n1",
    "readout value": 3.1
  },
  {
    "item smiles": "Cn1cc2c(nc(N(Cc3ccccc3)Cc3ccccc3)n3nc(-c4ccco4)nc23)n1",
    "readout value": 1.76
  },
  {
    "item smiles": "CC[C@@H](C)Nc1nc2nn(C)cc2c2nc(-c3ccco3)nn12",
    "readout value": 27.8
  },
  {
    "item smiles": "C[C@H](Nc1nc2nn(C)cc2c2nc(-c3ccco3)nn12)c1ccccc1",
    "readout value": 1130
  }
]
